Here, each record is paired with measured Ka data.
- Tested on: Methanothermobacter thermautotrophicus
- assay_notes: Activation of Methanothermobacter thermautotrophicus recombinant Cab by stopped-flow CO2 hydrase method
property_name: Ka (µM)

>>> numeric_readout("N[C@@H](Cc1ccc(O)c(O)c1)C(=O)O")
11.4
>>> numeric_readout("NCCN1CCOCC1")
18.5
>>> numeric_readout("NCCc1ccccn1")
40
>>> numeric_readout("N[C@@H](Cc1ccc(O)cc1)C(=O)O")
10.5
>>> numeric_readout("NCCc1c[nH]cn1")
76
>>> numeric_readout("NCc1ccccn1")
18.7
>>> numeric_readout("NCCN1CCNCC1")
13.8
>>> numeric_readout("NCCc1ccc(O)c(O)c1")
51
>>> numeric_readout("N[C@@H](Cc1c[nH]cn1)C(=O)O")
69
>>> numeric_readout("NCCc1c[nH]c2ccc(O)cc12")
62
>>> numeric_readout("N[C@H](Cc1ccc(O)c(O)c1)C(=O)O")
15.6
>>> numeric_readout("Nc1ccc(C[C@H](N)C(=O)O)cc1")
89
>>> numeric_readout("N[C@H](Cc1c[nH]c2ccccc12)C(=O)O")
41
>>> numeric_readout("N[C@@H](Cc1c[nH]c2ccccc12)C(=O)O")
16.9
>>> numeric_readout("CNC[C@@H](O)c1ccc(O)c(O)c1")
11.5
>>> numeric_readout("N[C@H](Cc1c[nH]cn1)C(=O)O")
57
